Each entry below carries its recorded growth inhibition.
- Assay explanation: NCI Yeast Anticancer Drug Screen. Data for the mec2-1 strain (AID 157)
- Assay conditions: S. cerevisiae mec2-1 strain, at 50.0 µM, hits give high values
Compounds without any hit were thinned out: in the full panel of roughly 79,000, 15% have a hit.
Please reply with the bare figure in % and do not write the unit itself.

Below are worked cases with known answers.
- Compound: "COc1ccc(N)cc1CO"
  Quantity measured: "growth inhibition"
  Value unit: "%"
  Measured number: -9.85
- Compound: "CCCCC(CC)C(C(C)=O)N(C)C (stereo not given)"
  Quantity measured: "growth inhibition"
  Value unit: "%"
  Measured number: -9.45
- Compound: "O=C(Nc1c(Oc2ccc(Cl)c(Cl)c2)ccc(Cl)c1S(=O)(=O)O)Nc1c(Oc2ccc(Cl)c(Cl)c2)ccc(Cl)c1S(=O)(=O)O"
  Quantity measured: "growth inhibition"
  Value unit: "%"
  Measured number: -3.25

Could you tell me which growth inhibition is on file for COc1ccc(CC(NC(=O)OCc2ccccc2)C(=O)NC2C(CO)OC(n3cnc4c(N)ncnc43)C2O)cc1 (stereo not given) ?
-6

Could you tell me which growth inhibition is on file for CCCCOC(=O)OCCOCCOC(=O)OC(C)C(=O)OCCCC (stereo not given) ?
-22.4

Could you tell me which growth inhibition is on file for C=C[C@]1(O)CCC[C@]2(C)C(=O)CCC12C (stereo not given in full) ?
-21.9

Could you tell me which growth inhibition is on file for CCC(=O)OCCOC(=O)CC ?
16.7

Could you tell me which growth inhibition is on file for O=C(O)CCCCl ?
-7.8

Could you tell me which growth inhibition is on file for Cc1nnnn1C12CC3CC(CC(C3)C1)C2 ?
5.7
